Collected pKi values appear next to each entry.
Biological target: Serine protease 1 (Homo sapiens)
Sequence (P07477 whole entry): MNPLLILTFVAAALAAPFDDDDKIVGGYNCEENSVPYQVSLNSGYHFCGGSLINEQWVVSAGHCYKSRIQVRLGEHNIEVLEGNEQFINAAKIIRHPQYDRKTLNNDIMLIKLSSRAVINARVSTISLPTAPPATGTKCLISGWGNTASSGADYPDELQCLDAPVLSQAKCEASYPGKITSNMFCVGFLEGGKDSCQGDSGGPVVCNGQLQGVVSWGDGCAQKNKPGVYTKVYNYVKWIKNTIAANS
Assay: The binding affinity was measured towards human purified trypsin
Remember, pKi is on a log scale: it is -log10 of the molar concentration.

Below: 2 molecules and their reported pKi.
{"columns": ["molecule", "pKi"],
 "data": [
  ["COC(=O)CC1(C(=O)Nc2ccc(-c3cccc(OC)c3)cc2)CC(c2cccc(C(=N)N)c2)=NO1 (stereo not drawn)", 6.41],
  ["COC(=O)CC1(C(=O)Nc2ccc(-c3ccccc3OC)cc2)CC(c2cccc(C(=N)N)c2)=NO1 (stereo not drawn)", 6.51]
]}

// next item, pKi requested
Record for COC(=O)CC1(C(=O)Nc2ccc(-c3ccccc3C(=O)OC)cc2)CC(c2cccc(C(=N)N)c2)=NO1 (stereo not drawn) under target or system Serine protease 1 (Homo sapiens): pKi reported as 6.52

====

Biological target: Serine protease 1 (Homo sapiens)
Experiment: The binding affinity was measured towards human purified trypsin
Label T when Ki is strictly below 200 nM; otherwise label F.

{"columns": ["compound", "answerLabel"],
 "data": [
  ["COC(=O)CC1(C(=O)Nc2ccc(-c3ccccc3S(N)(=O)=O)cc2)CC(c2cccc(C(=N)N)c2)=NO1.O=C(O)C(F)(F)F (racemic)", "T"],
  ["COC(=O)CC1(C(=O)Nc2ccc(-c3ccccc3S(N)(=O)=O)cn2)CC(c2cccc(C(=N)N)c2)=NO1 (stereo in doubt; 30)", "T"],
  ["COC(=O)CC1(C(=O)Nc2ncc(-c3ccccc3S(N)(=O)=O)cn2)CC(c2cccc(C(=N)N)c2)=NO1.O=C(O)C(F)(F)F (single isomer, unassigned; (-))", "T"],
  ["COC(=O)CC1(C(=O)Nc2ccc(-c3ccccc3SC)cc2)CC(c2cccc(C(=N)N)c2)=NO1 (configuration not stated)", "F"],
  ["COC(=O)CC1(C(=O)Nc2ccc(-c3ccccc3C)cc2)CC(c2cccc(C(=N)N)c2)=NO1 (configuration not stated)", "F"],
  ["COC(=O)CC1(C(=O)Nc2ccc(-c3ccccc3S(N)(=O)=O)cn2)CC(c2cccc(C(=N)N)c2)=NO1.O=C(O)C(F)(F)F (single isomer, unassigned; (+))", "T"]
]}

Turning now to a further record.
Does the reported Ki of COC(=O)CC1(C(=O)Nc2ccc(-c3ccccc3S(N)(=O)=O)cc2C)CC(c2cccc(C(=N)N)c2)=NO1 (configuration not stated) stay below 200 nM?
F
